Study System: Protein LANA1 (Human herpesvirus 8 type P (isolate GK18)) (UniProt Q9QR71)
Sequence (Q9QR71 whole entry, looked up): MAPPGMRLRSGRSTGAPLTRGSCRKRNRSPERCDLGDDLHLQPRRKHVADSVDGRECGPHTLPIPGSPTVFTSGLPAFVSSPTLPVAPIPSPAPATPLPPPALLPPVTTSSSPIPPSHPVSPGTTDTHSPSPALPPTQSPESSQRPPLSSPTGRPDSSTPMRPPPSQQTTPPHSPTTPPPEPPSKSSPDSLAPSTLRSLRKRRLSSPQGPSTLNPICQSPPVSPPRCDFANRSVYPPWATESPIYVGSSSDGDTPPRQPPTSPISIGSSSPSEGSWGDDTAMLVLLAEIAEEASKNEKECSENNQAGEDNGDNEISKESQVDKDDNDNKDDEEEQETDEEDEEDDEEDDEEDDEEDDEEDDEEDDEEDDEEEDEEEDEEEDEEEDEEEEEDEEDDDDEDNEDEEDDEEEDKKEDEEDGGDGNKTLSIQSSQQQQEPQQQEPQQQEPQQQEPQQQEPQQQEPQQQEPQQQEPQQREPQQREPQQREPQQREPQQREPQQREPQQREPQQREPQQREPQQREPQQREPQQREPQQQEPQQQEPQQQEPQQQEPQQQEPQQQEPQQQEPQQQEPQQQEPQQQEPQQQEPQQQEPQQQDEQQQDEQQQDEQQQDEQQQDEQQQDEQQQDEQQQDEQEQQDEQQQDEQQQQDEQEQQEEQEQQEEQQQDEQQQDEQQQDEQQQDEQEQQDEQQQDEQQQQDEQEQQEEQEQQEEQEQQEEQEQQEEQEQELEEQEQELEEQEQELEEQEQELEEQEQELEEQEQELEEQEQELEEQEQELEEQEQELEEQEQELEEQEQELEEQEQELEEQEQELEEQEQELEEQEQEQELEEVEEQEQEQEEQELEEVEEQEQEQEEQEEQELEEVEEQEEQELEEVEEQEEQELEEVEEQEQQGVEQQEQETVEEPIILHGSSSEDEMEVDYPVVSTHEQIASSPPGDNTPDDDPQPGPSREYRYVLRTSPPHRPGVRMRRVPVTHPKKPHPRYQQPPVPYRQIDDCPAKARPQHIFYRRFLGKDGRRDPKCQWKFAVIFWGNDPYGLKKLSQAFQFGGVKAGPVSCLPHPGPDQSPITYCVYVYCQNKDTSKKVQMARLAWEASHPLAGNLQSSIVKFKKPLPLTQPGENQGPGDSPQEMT
Assay Overview: blockers of LANA interaction with H2A/H2B – biochemical, FP readout, HTS, primary screen (AID 2629)
Condition Context: cell-free LANA-H2A/H2B peptide, fluorescence polarization, stronger effect = higher value, concentration not given here
The whole screen tested about 320,000 compounds, of which about 1,900 (0.59%) were called active. This is one part of a sample in which actives are shown more often than they occur.
Measure Name: inhibition (%)
# number only, unit % dropped from output

{"Compound": "Cn1c(=O)[nH]c(=O)c2c1nc(NCCCn1ccnc1)n2Cc1cccc(Br)c1", "Study System": "Protein LANA1 (Human herpesvirus 8 type P (isolate GK18)) (UniProt Q9QR71)", "inhibition [%]": 17.2}
{"Compound": "CCCCNc1nc2c(c(=O)[nH]c(=O)n2C)n1CCOc1ccccc1", "Study System": "Protein LANA1 (Human herpesvirus 8 type P (isolate GK18)) (UniProt Q9QR71)", "inhibition [%]": -0.364}
{"Compound": "Cc1cc(C)n(CCNC(=O)CC2C(=O)NCCN2Cc2ccc(C)o2)n1 (stereo not given)", "Study System": "Protein LANA1 (Human herpesvirus 8 type P (isolate GK18)) (UniProt Q9QR71)", "inhibition [%]": 4.74}
{"Compound": "COc1ccc(C)cc1S(=O)(=O)N(CC(=O)Nc1cccc([N+](=O)[O-])c1)c1ccc(C)cc1", "Study System": "Protein LANA1 (Human herpesvirus 8 type P (isolate GK18)) (UniProt Q9QR71)", "inhibition [%]": -2.08}

Ask: Specify measured inhibition for O=C(Nc1ccccc1C(=O)N1CCCCCC1)c1ccccc1Cl .
Result: -5

----------
Study System: Protein LANA1 (Human herpesvirus 8 type P (isolate GK18)) (UniProt Q9QR71)
Assay Overview: blockers of LANA interaction with H2A/H2B – biochemical, FP readout, HTS, primary screen (AID 2629)
Condition Context: cell-free LANA-H2A/H2B peptide, fluorescence polarization, stronger effect = higher value, concentration not given here
The campaign covered roughly 320,000 compounds. About 1,900 (0.59%) were called active. What follows is part of a selection rich in actives, with near analogues and random picks from the rest.
Measure Name: inhibition (%)
Respond numerically; units are % and should not be typed.

Use these answered entries as a reference point.
{"Compound": "CCC1=C(OC(=O)N(CC)CC)N2C(=O)OC(=NCCc3c[nH]c4ccccc34)[C@]2(C)[C@H]2C1=CC[C@H]1C(=O)N(CC)C(=O)[C@H]12", "Study System": "Protein LANA1 (Human herpesvirus 8 type P (isolate GK18)) (UniProt Q9QR71)", "Units Of Measure": "%", "Value Measured": 1.67}
{"Compound": "CC(=O)c1ccc(S(=O)(=O)NC2CC(=O)N(c3ccc4c(c3)OCCO4)C2)cc1 (centres undefined)", "Study System": "Protein LANA1 (Human herpesvirus 8 type P (isolate GK18)) (UniProt Q9QR71)", "Units Of Measure": "%", "Value Measured": -5.02}
{"Compound": "COc1ccc(F)cc1C(=O)C1CCCN(C(=O)CCc2ccccn2)C1 (centres undefined)", "Study System": "Protein LANA1 (Human herpesvirus 8 type P (isolate GK18)) (UniProt Q9QR71)", "Units Of Measure": "%", "Value Measured": -0.521}

Ask: Tell us which inhibition value is on record for C[N+](C)(CCCCCC[N+](C)(C)CCCN1C(=O)c2cccc3cccc(c23)C1=O)CCCN1C(=O)c2cccc3cccc(c23)C1=O
Result: 0.475

Ask: // fetch inhibition given entry CN1C(=O)c2cccc3c(N)ccc(c23)C1=O
Result: 25.3

Ask: Please give measured inhibition of the following entry: CSCC[C@H](NC(=O)N1CCn2c1nc1ccccc12)C(=O)NC1CCCCC1
Result: -4.45

Ask: Given Cc1nn(C)cc1N1C(=O)c2cccc3c(N)ccc(c23)C1=O , respond with its inhibition.
Result: 101

Ask: Name the recorded inhibition of the compound listed here: O=S(=O)(NC1CCCCC1N1CCC(O)CC1)c1ccc(Cl)cc1 (centres undefined)
Result: -2.17

Ask: Tell us which inhibition value is on record for Cc1nn(-c2cc(Cl)ccc2N)c(=O)c2ccccc12
Result: 0.97
